All values here come from patent US20200247886A1.

Biological target: T1, human CD47 expressed on cells (CD47 expressing CHO cells, Jurkat, HL60, DLD1, Raji) (human, UniProt Q08722 19-292)
T1 construct: also called CHO-CD47; IAP
Experiment: flow cytometry on human platelets, donor 2, MFI
Readout Kind: EC50 (read off the curve)

| Binder | Reported Measurement |
| --- | --- |
| H-ABU 41 (antibody, V domains shown, Humanized antibody) VL: DVQITQSPSSLSASVGDRVTITCRASKNIGKYLAWFQQKPGKTNKLLIYSGSTLQSGIPSRFSGSGSGTDFTLTISSLQPEDFATYYCQQHNEYPYTFGGGTKVEIK VH: QVQLQQSGAEVKKPGASVKVSCKTSGYSFTNYWMQWVRQAPGQGLEWIGMIDPSDSESRLNQKFKDKATLTVDKSTSTAYMELSSLRSEDTAVYYCARRGSPMITSFAYWGQGTLVTVSS | ~0.6 nM |
| H-ABU 10 (antibody, V domains shown) VL: DIVMTQSPDSLAVSLGERATINCKSSQSLVSSSQKNYLAWYQQKPGQPPKLLIYWASVRDSGVPDRFSGSGSGTDFTLTISSLQAEDVAVYYCQQYYSYPLTFGQGTKVEIK VH: QVQLVQSGAEVKKPGASVKVSCKASGYTFTDNYINWVRQAPGQRLEWMGWIYLGSGNTKYNEKFKGRVTITRDTSASTAYMELSSLRSEDTAVYYCARREERGFAPWGQGTLVTVSS | ~0.6 nM |
| H-ABU 7 (antibody, V domains shown) VH: QVQLVQSGAEVKKPGASVKVSCKASGYTFTDHYINWVRQAPGQRLEWMGWIYLGSGNTKYNEKFKGRVTITRDTSASTAYMELSSLRSEDTAVYYCARREDRGFAYWGQGTLVTVSS VL: DIVMTQSPDSLAVSLGERATINCKSSQSLLSSSQKNYLAWYQQKPGQPPKLLIYWASVRDSGVPDRFSGSGSGTDFTLTISSLQAEDVAVYYCQQYYSYPLTFGQGTKVEIK | ~0.6 nM |
| Positive 3 (analogue antibody) (antibody, V domains shown) VH: QMQLVQSGAEVKKTGSSVKVSCKASGFNIKDYYLHWVRQAPGQALEWMGWIDPDQGDTEYAQKFQDRVTITRDRSMSTAYMELSSLRSEDTAMYYCNAAYGSSSYPMDYWGQGTTVTV VL: NIQMTQSPSAMSASVGDRVTITCKASQDIHRYLSWFQQKPGKVPKHLIYRANRLVSGVPSRFSGSGSGTEFTLTISSLQPEDFATYYCLQYDEFPYTFGGGTKVEIK | ~0.6 nM |
| H-ABU44 (antibody, V domains shown) VH: QVQLVQSGAEVKKPGASVKVSCKASGYSFTNYHIHWVRQAPGQRLEWIGWIYPGSGNTKYNEKFKGRATLTADTSASTAYMELSSLRSEDTAVYYCARYDYDLYLHSWGQGTLVTVSS VL: DIQITQSPSSVSASVGDRVTITCHASQNINVWLSWYQQKPGKAPKLLIYKASNLHTGVPSRFSGSGSGTGFTLTISSLQPEDFATYYCQQGQSYPLTFGQGTKLEIK | ~0.1 nM |
| H-ABU 43 (antibody, V domains shown, Humanized antibody) VH: QVQLVQSGAEVKKPGASVKVSCKTSGYSFTNYWMQWVRQAPGQGLEWMGMIDPSDSESRLNQKFKDRVTMTRDTSTSTAYMELSSLRSEDTAVYYCARRGSPMITSFAYWGQGTLVTVSS VL: DVQITQSPSSLSASVGDRVTITCRASKNIGKYLAWFQQKPGKTNKLLIYSGSTLQSGIPSRFSGSGSGTDFTLTISSLQPEDFATYYCQQHNEYPYTFGGGTKVEIK | ~0.6 nM |
| H-ABU 11 (antibody, V domains shown) VH: QVQLVQSGAEVKKPGASVKVSCKASGYTFTDFYINWVRQAPGQRLEWMGWIYLGSGNTKYNEKFKGRVTITRDTSASTAYMELSSLRSEDTAVYYCARREERGFAYWGQGTLVTVSS VL: DIVMTQSPDSLAVSLGERATINCKSSQSLLSSSQKNYLAWYQQKPGQPPKLLIYWASTRDSGVPDRFSGSGSGTDFTLTISSLQAEDVAVYYCQQFYSYPLTFGQGTKVEIK | ~0.9 nM |
